Items are presented alongside their recorded IC50.
System: MCF-7 (Breast cancer)
Assay: Sulphorhodamine B cytotoxicity assay, MCF-7
Format: cell-based, human
Conditions: Homo sapiens, MCF7; SRB assay, 48 hours incubation; read-out: Human cancer cell lines IC50, MCF-7 (Breast cancer)
Just the number in µM, nothing appended.

Completed entries (count: 2):
MOLECULE: COc1cc(C2/C(=C/c3ccc([N+](=O)[O-])cc3)C(=O)c3cc(OC)c(OC)c(OC)c32)cc(OC)c1OC (stereo not shown) [Compound 11]
VALUE_KIND: IC50
ASSAY_VALUE: 88.1

MOLECULE: COc1cc(/C=C2\C(=O)c3cc(OC)c(OC)c(OC)c3C2c2cc(OC)c(OC)c(OC)c2)cc(OC)c1OC (stereo not shown) [Compound 9]
VALUE_KIND: IC50
ASSAY_VALUE: 38.9

Query: Fill in the blank: the reported IC50 of COc1cc(C2/C(=C/c3ccc(OC)c(OC)c3OC)C(=O)c3cc(OC)c(OC)c(OC)c32)cc(OC)c1OC (stereo not shown) [Compound 15] is ____.
Response: 8.88

Query: Please look up its IC50: COc1cc(C2/C(=C/c3ccc4c(c3)OCO4)C(=O)c3cc(OC)c(OC)c(OC)c32)cc(OC)c1OC (racemic) [Compound 8]
Response: 0.01

Query: Name the reported IC50 value associated with the molecule COc1ccc(/C=C2\C(=O)c3cc(OC)c(OC)c(OC)c3C2c2cc(OC)c(OC)c(OC)c2)cc1 (stereo not shown) [Compound 10]
Response: 3.18

Query: Would you kindly share the measured IC50 for COc1cc(OC)c(OC)cc1/C=C1\C(=O)c2cc(OC)c(OC)c(OC)c2C1c1cc(OC)c(OC)c(OC)c1 (stereo not shown) [Compound 16] ?
Response: 56.5
